The origin of these recorded values is paper PMC10831786.

target: protein synthesis in rabbit reticulocyte lysate; test: Inhibition of protein synthesis in rabbit reticulocyte lysates (luciferase mRNA translation); details: luciferase mRNA, 30 °C, 90 min
property-measured: IC50 (nM)
Form entry: value (nM) — number only.

For the molecule C[C@@H]1C[C@@H]([C@H](O)CC2CC(=O)NC(=O)C2)C(=O)[C@@H](C)C1 [CHX, Cycloheximide, reference compound] , what IC50 is on record?
31

* * *

tested on: Vero E6 cells; experiment: MTS assay, growth inhibition and toxicity in non-infected Vero E6 cells; type: cell-based, African green monkey; conditions: MTS, 72 h; read-out: Fifty percent effect (CC50) in non-infected Vero E6
property-measured: CC50 (µM)
Form entry: value (µM) — number only.

Any idea what CC50 came out for "CC[C@H]1CN2CCc3cc(OC)c(OC)cc3[C@@H]2C[C@@H]1C[C@@H]1NCCc2cc(OC)c(OC)cc21.Cl.Cl" on Vero E6 cells?
114

* * *

molecular target: l-type calcium current ICaL (Cavia porcellus, UniProt O35505); assay: Patch clamp recording of ICaL in guinea pig ventricular myocytes; details: GP cardiomyocytes; read-out: IC50, calcium channel (ICaL) blocking activity
Sequence (O35505 whole entry): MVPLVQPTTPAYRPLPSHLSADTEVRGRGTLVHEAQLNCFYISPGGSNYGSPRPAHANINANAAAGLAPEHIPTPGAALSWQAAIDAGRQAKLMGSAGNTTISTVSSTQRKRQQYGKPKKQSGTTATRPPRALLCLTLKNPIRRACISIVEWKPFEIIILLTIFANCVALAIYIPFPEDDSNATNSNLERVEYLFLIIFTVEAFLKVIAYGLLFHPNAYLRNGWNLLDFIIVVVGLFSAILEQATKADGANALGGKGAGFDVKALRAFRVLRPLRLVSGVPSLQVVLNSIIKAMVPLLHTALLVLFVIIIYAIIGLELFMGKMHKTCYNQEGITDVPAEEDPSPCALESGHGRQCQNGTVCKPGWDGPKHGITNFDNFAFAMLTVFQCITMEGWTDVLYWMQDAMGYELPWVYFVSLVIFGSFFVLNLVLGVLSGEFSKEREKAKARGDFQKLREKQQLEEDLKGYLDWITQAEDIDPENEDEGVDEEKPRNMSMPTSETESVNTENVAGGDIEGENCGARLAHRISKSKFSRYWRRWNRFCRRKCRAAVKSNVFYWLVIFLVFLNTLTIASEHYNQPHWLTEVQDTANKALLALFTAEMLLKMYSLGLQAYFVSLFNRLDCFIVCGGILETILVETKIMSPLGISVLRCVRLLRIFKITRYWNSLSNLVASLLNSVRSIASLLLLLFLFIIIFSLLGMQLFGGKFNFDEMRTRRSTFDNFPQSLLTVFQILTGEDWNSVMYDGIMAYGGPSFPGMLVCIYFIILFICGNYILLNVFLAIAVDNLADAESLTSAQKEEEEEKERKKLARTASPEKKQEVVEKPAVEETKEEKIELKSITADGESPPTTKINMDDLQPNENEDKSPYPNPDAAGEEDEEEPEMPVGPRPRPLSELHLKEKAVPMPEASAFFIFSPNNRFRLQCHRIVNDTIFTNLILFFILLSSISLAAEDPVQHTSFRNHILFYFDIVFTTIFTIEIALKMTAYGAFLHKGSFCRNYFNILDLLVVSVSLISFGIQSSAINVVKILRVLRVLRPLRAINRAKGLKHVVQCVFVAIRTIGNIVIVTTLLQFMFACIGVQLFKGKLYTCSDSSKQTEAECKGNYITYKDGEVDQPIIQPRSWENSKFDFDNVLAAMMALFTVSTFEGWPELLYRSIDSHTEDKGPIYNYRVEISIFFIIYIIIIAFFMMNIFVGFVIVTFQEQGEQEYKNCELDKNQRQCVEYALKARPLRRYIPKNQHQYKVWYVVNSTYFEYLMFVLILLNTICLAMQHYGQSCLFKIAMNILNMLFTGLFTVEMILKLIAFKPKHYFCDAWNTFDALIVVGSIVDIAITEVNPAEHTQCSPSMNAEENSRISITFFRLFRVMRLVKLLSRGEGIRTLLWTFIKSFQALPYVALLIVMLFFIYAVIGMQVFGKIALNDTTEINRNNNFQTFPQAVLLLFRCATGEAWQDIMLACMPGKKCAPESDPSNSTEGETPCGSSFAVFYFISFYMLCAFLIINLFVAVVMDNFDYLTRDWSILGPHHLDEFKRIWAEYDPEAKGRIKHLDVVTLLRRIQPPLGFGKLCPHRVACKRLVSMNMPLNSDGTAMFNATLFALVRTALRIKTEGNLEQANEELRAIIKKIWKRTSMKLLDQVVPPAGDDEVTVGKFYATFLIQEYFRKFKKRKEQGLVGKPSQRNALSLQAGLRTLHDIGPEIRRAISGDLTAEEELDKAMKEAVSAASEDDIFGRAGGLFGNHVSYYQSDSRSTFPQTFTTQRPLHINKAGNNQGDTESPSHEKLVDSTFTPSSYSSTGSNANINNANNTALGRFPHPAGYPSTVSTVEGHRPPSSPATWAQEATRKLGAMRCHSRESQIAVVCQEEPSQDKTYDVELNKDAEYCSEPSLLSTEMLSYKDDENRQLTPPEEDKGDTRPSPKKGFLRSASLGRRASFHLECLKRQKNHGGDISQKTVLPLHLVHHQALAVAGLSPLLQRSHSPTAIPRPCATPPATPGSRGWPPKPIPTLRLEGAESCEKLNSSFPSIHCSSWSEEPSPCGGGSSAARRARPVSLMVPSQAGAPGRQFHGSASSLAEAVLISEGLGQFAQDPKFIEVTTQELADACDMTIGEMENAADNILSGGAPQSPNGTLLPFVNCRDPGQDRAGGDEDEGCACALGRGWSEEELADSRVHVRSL
pIC50: −log10 of the molar value.
property-measured: pIC50

Any idea what pIC50 came out for "CCC1=C(C[C@H]2NCCc3cc(OC)c(OC)cc32)C[C@H]2c3cc(OC)c(OC)cc3CCN2C1" on l-type calcium current ICaL (Cavia porcellus, UniProt O35505)?
4.22 to 4.40

* * *

test system: HCoV-OC43; assay: Antiviral activity against HCoV-OC43 in Vero E6 cells (RT-qPCR of N-gene); format: cell-based; details: Betacoronavirus 1, OC43, Vero C1008, Vero E6, drug 1 h before viral absorption and 72 h after infection (1 hbi/72 hpi); read-out: Antiviral IC50
property-measured: pIC50
Just so you know, pIC50 here is -log10 of the concentration in molar units; reply with that number alone.

For the molecule CC[C@H]1CN2CCc3cc(OC)c(OC)cc3[C@@H]2C[C@@H]1C[C@H]1NCCc2cc(OC)c(OC)cc21 [Emetine, reference compound] , what pIC50 is on record?
7.36

* * *

experiment: MTS assay, growth inhibition and toxicity in non-infected Vero E6 cells; format: cell-based, African green monkey; settings: African green monkey, non-infected Vero E6 cells, MTS, 72 h; read-out: Fifty percent effect (CC50) in non-infected Vero E6
property-measured: CC50 at 72 h (µM)
Form entry: value (µM) — number only.

For the compound "CCC1=C(C[C@@H]2NCCc3cc(OC)c(OC)cc32)C[C@@H]2c3cc(OC)c(OC)cc3CCN2C1" , what CC50 at 72 h is on record?
193

For the compound CC[C@H]1CN2CCc3cc(OC)c(OC)cc3[C@@H]2C[C@@H]1C[C@H]1NCCc2cc(OC)c(OC)cc21 [Emetine, reference compound] , what CC50 at 72 h is on record?
1.52
